- measurement.description: refractive index (Na D-line) (dimensionless)
- condition.label: 323.15 K; 101.33 kPa; Liquid; Standard Abbe refractometry
test.readout: refractive index

N#CCCn1cc[nH+]c1.O=S(=O)([O-])O [1-(2-cyanoethyl)imidazolium hydrogen sulfate] ... 1.49599
Cc1ccc(S(=O)(=O)[O-])cc1.N#CCCn1cc[nH+]c1 [1-(2-cyanoethyl)imidazolium 4-methylbenzenesulfonate] ... 1.53798
CC(=O)[O-].N#CCCn1cc[nH+]c1 [1-(2-cyanoethyl)imidazolium acetate] ... 1.47508
Cn1ccnc1.O=S(=O)(O)O [1-methylimidazolium hydrogen sulfate] ... 1.48311
CS(=O)(=O)[O-].N#CCCn1cc[nH+]c1 [1-(2-cyanoethyl)imidazolium methanesulfonate] ... 1.49402

====

- measurement.description: refractive index (Na D-line) (dimensionless)
- condition.label: 313.15 K; 101.33 kPa; Liquid; Standard Abbe refractometry
test.readout: refractive index

CC(=O)[O-].N#CCCn1cc[nH+]c1 [1-(2-cyanoethyl)imidazolium acetate] ... 1.47851
Cn1ccnc1.O=S(=O)(O)O [1-methylimidazolium hydrogen sulfate] ... 1.48552
Cc1ccc(S(=O)(=O)[O-])cc1.N#CCCn1cc[nH+]c1 [1-(2-cyanoethyl)imidazolium 4-methylbenzenesulfonate] ... 1.54051
CS(=O)(=O)[O-].N#CCCn1cc[nH+]c1 [1-(2-cyanoethyl)imidazolium methanesulfonate] ... 1.49686
N#CCCn1cc[nH+]c1.O=S(=O)([O-])O [1-(2-cyanoethyl)imidazolium hydrogen sulfate] ... 1.49817

====

- measurement.description: refractive index (Na D-line) (dimensionless)
- condition.label: 318.15 K; 101.33 kPa; Liquid; Standard Abbe refractometry
test.readout: refractive index

CS(=O)(=O)[O-].N#CCCn1cc[nH+]c1 [1-(2-cyanoethyl)imidazolium methanesulfonate] ... 1.49547
Cn1ccnc1.O=S(=O)(O)O [1-methylimidazolium hydrogen sulfate] ... 1.48432
CC(=O)[O-].N#CCCn1cc[nH+]c1 [1-(2-cyanoethyl)imidazolium acetate] ... 1.4768
Cc1ccc(S(=O)(=O)[O-])cc1.N#CCCn1cc[nH+]c1 [1-(2-cyanoethyl)imidazolium 4-methylbenzenesulfonate] ... 1.53926
N#CCCn1cc[nH+]c1.O=S(=O)([O-])O [1-(2-cyanoethyl)imidazolium hydrogen sulfate] ... 1.49708

====

- measurement.description: refractive index (Na D-line) (dimensionless)
- condition.label: 308.15 K; 101.33 kPa; Liquid; Standard Abbe refractometry
test.readout: refractive index

N#CCCn1cc[nH+]c1.O=S(=O)([O-])O [1-(2-cyanoethyl)imidazolium hydrogen sulfate] ... 1.49927
CC(=O)[O-].N#CCCn1cc[nH+]c1 [1-(2-cyanoethyl)imidazolium acetate] ... 1.48025
Cc1ccc(S(=O)(=O)[O-])cc1.N#CCCn1cc[nH+]c1 [1-(2-cyanoethyl)imidazolium 4-methylbenzenesulfonate] ... 1.54177
Cn1ccnc1.O=S(=O)(O)O [1-methylimidazolium hydrogen sulfate] ... 1.48655
CS(=O)(=O)[O-].N#CCCn1cc[nH+]c1 [1-(2-cyanoethyl)imidazolium methanesulfonate] ... 1.49826

====

- measurement.description: refractive index (Na D-line) (dimensionless)
- condition.label: 298.15 K; 101.33 kPa; Liquid; Standard Abbe refractometry
test.readout: refractive index

CS(=O)(=O)[O-].N#CCCn1cc[nH+]c1 [1-(2-cyanoethyl)imidazolium methanesulfonate] ... 1.50096
Cc1ccc(S(=O)(=O)[O-])cc1.N#CCCn1cc[nH+]c1 [1-(2-cyanoethyl)imidazolium 4-methylbenzenesulfonate] ... 1.54414
CC(=O)[O-].N#CCCn1cc[nH+]c1 [1-(2-cyanoethyl)imidazolium acetate] ... 1.48368
Cn1ccnc1.O=S(=O)(O)O [1-methylimidazolium hydrogen sulfate] ... 1.48865
N#CCCn1cc[nH+]c1.O=S(=O)([O-])O [1-(2-cyanoethyl)imidazolium hydrogen sulfate] ... 1.50138
